Below is a list of entries, each paired with its recorded Normalized DMPK Remaining value.
# System: DMPK
# Procedure text: DMPK knockdown by transfected antisense oligonucleotides in DM1 C15 myotubes at 0.5 nM and 50 nM
# Type: cell-based
# Test conditions: 50 nM oligonucleotide, 72 hours, relative to vehicle control = 1.00
Readout label: Normalized DMPK Remaining

>>> readout_value("462 (UCUGCCUCGCGUAGUGACU; chemistry not given here) [compound 462]")
0.13
>>> readout_value("443 (CCAUCCGCUCCUGCAACUGC; chemistry not given here) [compound 443]")
0.28
>>> readout_value("458 (GUCGGCCAGGCGGAUGUGGC; chemistry not given here) [compound 458]")
0.25
>>> readout_value("417 (CCAGCAGGAUGUUGUCGGGU; chemistry not given here) [compound 417]")
0.10
>>> readout_value("435 (GCCUGUCAGCGAGUCGGAGG; chemistry not given here) [compound 435]")
0.24
>>> readout_value("413 (GACAGACAAUAAAUACCGAG; chemistry not given here) [compound 413]")
0.62
>>> readout_value("402 (GACAAUCUCCGCCAGGUAGA; chemistry not given here) [compound 402]")
0.50
>>> readout_value("438 (UCUAGGGUUCAGGGAGCGCG; chemistry not given here) [compound 438]")
0.17
>>> readout_value("464 (UCCUUGUAGUGGACGAUCUU; chemistry not given here) [compound 464]")
0.15
>>> readout_value("477 (CAGCGGCAGAGAGAGGUGCT; chemistry not given here) [compound 477]")
0.14
>>> readout_value("384 (UGGACGAUCUUGCCAUAGGU; chemistry not given here) [compound 384]")
0.57
>>> readout_value("437 (CAUCCGCUCCUGCAACUGCC; chemistry not given here) [compound 437]")
0.23
>>> readout_value("448 (UUGGGCAGAUGGAGGGCCUU; chemistry not given here) [compound 448]")
0.22

###

Catalogue of Percent DMPK Reduction readings, one per entry.
# System: DMPK
# Procedure text: DMPK knockdown by transfected antisense oligonucleotides in DM1 C15 myotubes at 0.5 nM and 50 nM
# Assay type: cell-based
# Test conditions: 50 nM oligonucleotide, 72 hours, qPCR, relative to vehicle control
Readout label: Percent DMPK Reduction (%)

>>> readout_value("327 (CCCAAACUUGCUCAGCAGUG; chemistry not given here) [compound 327]")
61.78
>>> readout_value("263 (GGAUGGCCUCCAUCUCCCGG; chemistry not given here) [compound 263]")
60.77
>>> readout_value("255 (GUUGCGGGUUUGAUGUCCC; chemistry not given here) [compound 255]")
61.07
>>> readout_value("342 (UGGCCACAGCGGUCCAGCAG; chemistry not given here) [compound 342]")
69.44
>>> readout_value("336 (GAUGUUGUCGGGUUUGAUGU; chemistry not given here) [compound 336]")
42.42
>>> readout_value("351 (UGAUGUCCCUGUGCACGUAG; chemistry not given here) [compound 351]")
59.00
>>> readout_value("347 (GCUCAGCAGUGUCAGCAGGU; chemistry not given here) [compound 347]")
73.46
>>> readout_value("337 (GUUUGCCCAUCCACGUCAGG; chemistry not given here) [compound 337]")
54.49
>>> readout_value("286 (GCUUCAUCUUCACUACCGCU; chemistry not given here) [compound 286]")
51.78
>>> readout_value("338 (CGGACGGCCCGGCUUGCUGC; chemistry not given here) [compound 338]")
30.41
>>> readout_value("253 (UGCUCAGCAGUGUCAGCAGG; chemistry not given here) [compound 253]")
65.78

###

Each entry below carries its recorded Percent DMPK Reduction.
# Tested on: DMPK
# Procedure text: DMPK knockdown by transfected antisense oligonucleotides in DM1 C15 myotubes at 0.5 nM and 50 nM
# Format: cell-based
# Test conditions: 50 nM oligonucleotide, 72 hours
Readout label: Percent DMPK Reduction (%)

>>> readout_value("412 (AGGUACAGGUAGUUCUCAUC; chemistry not given here) [compound 412]")
58.92
>>> readout_value("448 (UUGGGCAGAUGGAGGGCCUU; chemistry not given here) [compound 448]")
78.39
>>> readout_value("379 (CAGGUAGUUCUCAUCCUGGA; chemistry not given here) [compound 379]")
76.71
>>> readout_value("382 (AUGUCCCUGUGCACGUAGCC; chemistry not given here) [compound 382]")
49.29

###

# Tested on: DMPK
# Procedure text: DMPK knockdown by transfected antisense oligonucleotides in DM1 C15 myotubes at 0.5 nM and 50 nM
# Type: cell-based
# Test conditions: 0.5 nM oligonucleotide, 72 hours, qPCR, relative to vehicle control
Reported Percent DMPK Reduction values are given for each entry in this list.
Readout label: Percent DMPK Reduction (%)

>>> readout_value("297 (CUCAGGCUCUGCCGGGUGAG; chemistry not given here) [compound 297]")
30.13
>>> readout_value("324 (GCCUCAGCCUCUGCCGCAGG; chemistry not given here) [compound 324]")
16.37
>>> readout_value("280 (UUGCCAUAGGUCUCCGCCGU; chemistry not given here) [compound 280]")
36.30
>>> readout_value("286 (GCUUCAUCUUCACUACCGCU; chemistry not given here) [compound 286]")
31.44
>>> readout_value("312 (GUCUCAGUGCAUCCAAAACG; chemistry not given here) [compound 312]")
18.85
>>> readout_value("262 (UGUCGGGUUUGAUGUCCCUG; chemistry not given here) [compound 262]")
30.09
>>> readout_value("260 (CGAAUGUCCGACAGUGUCUC; chemistry not given here) [compound 260]")
40.21

###

# Tested on: DMPK
# Procedure text: DMPK knockdown by transfected antisense oligonucleotides in DM1 C15 myotubes at 0.5 nM and 50 nM
# Assay type: cell-based
# Test conditions: 0.5 nM oligonucleotide, 72 hours, qPCR, relative to vehicle control = 1.00
Criterion: Normalized DMPK Remaining strictly less than 0.7. Met: met. Not met: not met.

>>> assigned_class("310 (GCGUAGAAGGGCGUCUGCCC; chemistry not given here) [compound 310]")
"met"
>>> assigned_class("267 (CUUGUUCAUGAUCUUCAUGG; chemistry not given here) [compound 267]")
"not met"
>>> assigned_class("259 (CAGCUGCGUGAUCCACCGCC; chemistry not given here) [compound 259]")
"not met"
>>> assigned_class("309 (CACAGCGGUCCAGCAGGAUG; chemistry not given here) [compound 309]")
"not met"
>>> assigned_class("314 (UCAGCAGUGUCAGCAGGUCC; chemistry not given here) [compound 314]")
"met"
>>> assigned_class("362 (GCUGUCCCGGAGACCAUCCC; chemistry not given here) [compound 362]")
"not met"

###

# Tested on: DMPK
# Procedure text: DMPK knockdown by transfected antisense oligonucleotides in DM1 C15 myotubes at 0.5 nM and 50 nM
# Type: cell-based
# Test conditions: 0.5 nM oligonucleotide, 72 hours
Param threshold (20%) applies to Percent DMPK Reduction; output True when value >= threshold, False when value < threshold.

>>> assigned_class("456 (CCUCAGCCUGGCCGAAAGAA; chemistry not given here) [compound 456]")
"False"
>>> assigned_class("448 (UUGGGCAGAUGGAGGGCCUU; chemistry not given here) [compound 448]")
"False"
>>> assigned_class("398 (ACGUGUGCCUCUAGGUCCCG; chemistry not given here) [compound 398]")
"False"
>>> assigned_class("458 (GUCGGCCAGGCGGAUGUGGC; chemistry not given here) [compound 458]")
"False"
>>> assigned_class("473 (CUUGUAGUGGACGAUCUUGC; chemistry not given here) [compound 473]")
"True"
>>> assigned_class("435 (GCCUGUCAGCGAGUCGGAGG; chemistry not given here) [compound 435]")
"False"
>>> assigned_class("402 (GACAAUCUCCGCCAGGUAGA; chemistry not given here) [compound 402]")
"True"
>>> assigned_class("426 (CTGCAGUUUGCCCAUCCACG; chemistry not given here) [compound 426]")
"False"
>>> assigned_class("441 (CAAUCUCCGCCAGGUAGAAG; chemistry not given here) [compound 441]")
"False"
>>> assigned_class("387 (UCGAAGUUGCAUGUGUCGGU; chemistry not given here) [compound 387]")
"True"
>>> assigned_class("409 (GGCUUGCUGCCUUCCCAGGC; chemistry not given here) [compound 409]")
"False"

###

# Tested on: DMPK
# Procedure text: DMPK knockdown by transfected antisense oligonucleotides in DM1 C15 myotubes at 0.5 nM and 50 nM
# Assay type: cell-based
# Test conditions: 0.5 nM oligonucleotide, 72 hours, qPCR, relative to vehicle control = 1.00
Item-by-item account of Normalized DMPK Remaining
Readout label: Normalized DMPK Remaining

>>> readout_value("371 (GUGGAAUCCGCGUAGAAGGG; chemistry not given here) [compound 371]")
0.69
>>> readout_value("342 (UGGCCACAGCGGUCCAGCAG; chemistry not given here) [compound 342]")
0.70
>>> readout_value("262 (UGUCGGGUUUGAUGUCCCUG; chemistry not given here) [compound 262]")
0.70
